Origin of values: patent US8129355B2

Overview of reported Z3 Rel Max FI across a group of compounds:
- target-under-test: Bombyx mori EcR (VP16 fusion, switch construct CVBE) with 6XEcRE LacZ reporter (Bombyx mori)
- Construct: expressed in transfected cells; host or cells: Human 293 kidney (HEK-293) cells, retrovirally infected, clone Z3
- Sequence (P49881 86-606 limits assumed): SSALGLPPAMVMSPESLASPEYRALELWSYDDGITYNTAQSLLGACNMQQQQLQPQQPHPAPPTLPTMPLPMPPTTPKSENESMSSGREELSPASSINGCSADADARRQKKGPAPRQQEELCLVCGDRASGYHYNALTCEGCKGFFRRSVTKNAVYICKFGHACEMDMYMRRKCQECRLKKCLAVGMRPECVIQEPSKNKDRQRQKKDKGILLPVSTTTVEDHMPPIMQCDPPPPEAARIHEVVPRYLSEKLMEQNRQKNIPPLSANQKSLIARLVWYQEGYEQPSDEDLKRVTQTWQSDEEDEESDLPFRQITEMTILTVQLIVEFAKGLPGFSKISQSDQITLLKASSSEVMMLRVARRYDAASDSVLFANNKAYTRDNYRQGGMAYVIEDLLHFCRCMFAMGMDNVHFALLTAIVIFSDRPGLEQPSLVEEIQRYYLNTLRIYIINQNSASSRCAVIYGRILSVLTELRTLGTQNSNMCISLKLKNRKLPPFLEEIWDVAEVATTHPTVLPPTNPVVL
- Sequence (P19793 1-462 partner): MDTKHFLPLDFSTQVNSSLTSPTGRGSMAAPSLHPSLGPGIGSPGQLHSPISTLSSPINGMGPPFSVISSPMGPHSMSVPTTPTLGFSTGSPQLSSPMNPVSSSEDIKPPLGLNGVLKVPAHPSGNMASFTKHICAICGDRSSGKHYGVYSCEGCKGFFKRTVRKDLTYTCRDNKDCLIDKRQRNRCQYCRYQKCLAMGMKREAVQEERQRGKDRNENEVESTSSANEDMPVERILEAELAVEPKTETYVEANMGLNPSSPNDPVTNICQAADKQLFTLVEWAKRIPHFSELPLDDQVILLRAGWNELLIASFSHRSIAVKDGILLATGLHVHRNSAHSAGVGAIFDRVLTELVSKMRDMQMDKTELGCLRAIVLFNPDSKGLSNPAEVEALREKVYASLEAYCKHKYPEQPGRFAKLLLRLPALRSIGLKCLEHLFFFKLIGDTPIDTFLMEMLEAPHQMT
- assay-details: Z3 assay: β-galactosidase (LacZ) reporter gene fold induction in stably transformed human 293 kidney cells (clone Z3)
- Format: cell-based
- measurement-context: maximum fold induction at any concentration relative to that of GS-E ligand
In your answer, state the number alone without any accompanying words.

Solved entries (count: 3):
INSERT INTO assay_data (compound, quantitative_result) VALUES
  ('COc1cccc(C(=O)NC2(C(=O)c3cc(C)cc(C)c3)CCC3(CC2)OCCO3)c1C [Example 29]', 0.06),
  ('CCC(CC)(NC(=O)c1cccc(OC)c1C)C(=O)c1ccc(C)cc1 [Example 77]', 0.04),
  ('COc1ccccc1C(=O)C1(NC(=O)c2cccc(OC)c2C)CCCCC1 [Example 45]', 0.84);

(Q) Please give the measured Z3 Rel Max FI for this compound: CCC(CC)(NC(=O)c1cccc(OC)c1C)C(=O)c1ccc(F)c(C)c1 [Example 50]
(A) 0.07

(Q) Item under review: CCc1c(C(=O)NC2(C(=O)c3ccccc3)CCCC2)ccc2c1OCCO2 [Example 22] . Reported Z3 Rel Max FI?
(A) 0.48
